Reference for the values: ChEMBL document CHEMBL1128968

# measurement_target: Stromelysin-1 (Homo sapiens, UniProt P08254)
# Sequence (P08254 whole entry): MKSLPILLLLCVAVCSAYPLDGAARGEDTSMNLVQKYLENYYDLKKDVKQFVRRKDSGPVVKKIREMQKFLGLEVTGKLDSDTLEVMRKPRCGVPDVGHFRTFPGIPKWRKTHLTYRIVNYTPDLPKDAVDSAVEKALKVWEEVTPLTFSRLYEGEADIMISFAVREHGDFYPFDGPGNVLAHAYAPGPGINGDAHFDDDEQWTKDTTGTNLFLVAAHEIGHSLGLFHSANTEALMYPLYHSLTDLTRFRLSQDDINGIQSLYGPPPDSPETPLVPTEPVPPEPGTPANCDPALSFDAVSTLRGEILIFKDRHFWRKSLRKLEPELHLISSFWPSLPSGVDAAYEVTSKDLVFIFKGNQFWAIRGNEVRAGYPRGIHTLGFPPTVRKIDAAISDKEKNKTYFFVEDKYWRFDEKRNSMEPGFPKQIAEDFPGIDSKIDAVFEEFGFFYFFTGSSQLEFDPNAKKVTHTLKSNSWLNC
measurement_label: pIC50
Answers are plain numbers, as −log10 of the molar value.

// pIC50 (Stromelysin-1 (Homo sapiens, UniProt P08254)) for CC(C)C[C@H](NP(=O)(O)CCCCN1C(=O)c2ccccc2C1=O)C(=O)N[C@@H](Cc1c[nH]c2ccccc12)C(=O)NCc1ccccc1 = 6.59

###

# measurement_target: Stromelysin-1 (Homo sapiens)
# method_description: Inhibition of stromelysin-1 (MMP-3).
Criterion: Ki strictly less than 20 nM. Met: rule met. Not met: rule not met.

Lab note: confirm whether the reported Ki for this compound is below 20 nM, equality not counting. compound: CC(C)C[C@H](NC(=O)[C@H](CCc1ccccc1)CP(=O)(O)CCCCN1Cc2ccccc2C1=O)C(=O)Nc1ccccc1
rule met

Lab note: confirm whether the reported Ki for this compound is below 20 nM, equality not counting. compound: CCNC(=O)NCCCCP(=O)(O)C[C@@H](CCc1ccccc1)C(=O)N[C@@H](CC(C)C)C(=O)Nc1ccccc1
rule met

Lab note: confirm whether the reported Ki for this compound is below 20 nM, equality not counting. compound: CC(=O)N1CCC[C@@H]1C(=O)NCCCCP(=O)(O)C[C@@H](CCc1ccccc1)C(=O)N[C@@H](CC(C)C)C(=O)Nc1ccccc1
rule not met

Lab note: confirm whether the reported Ki for this compound is below 20 nM, equality not counting. compound: CC(C)C[C@H](NC(=O)[C@H](CCc1ccccc1)CP(=O)(O)CCCCNC(=O)NCc1ccccc1)C(=O)Nc1ccccc1
rule not met
